test: Ratio of drug level in kidney to plasma of LRRK2 G2019S transgenic mouse kidney at 30 to 300 mg/kg/day; conditions: kidney and plasma
EXPERIMENTAL_ENDPOINT: Kp

Q) So what does the record say about Kp for "COc1ccc(OC)c(Sc2ccc3nnc(-c4cnn(C)c4)n3n2)c1" ?
A) 2

* * *

test: AUC (0 to 24 hrs) in mouse at 300 mg/kg/day, po for 14 days; format: ADME, organism-based; design: time < 24 hr, dose 300 mg/kg/day, route oral; details: plasma
EXPERIMENTAL_ENDPOINT: AUC at 24 h (ng·h/mL)
Please respond with the number in ng·h/mL and leave the unit unwritten.

Q) Item under review: "COc1ccc(OC)c(Sc2ccc3nnc(-c4cnn(C)c4)n3n2)c1" . Reported AUC at 24 h?
A) 20900

* * *

test: Cmax in mouse at 300 mg/kg/day, po for 14 days; type: ADME, organism-based; set-up: dose 300 mg/kg/day, route oral; conditions: in vivo
EXPERIMENTAL_ENDPOINT: Cmax (ng/mL)
Give just the numeric value; ng/mL need not be written.

Q) # lookup: Cmax of "COc1ccc(OC)c(Sc2ccc3nnc(-c4cnn(C)c4)n3n2)c1"
A) 12900

* * *

experiment: Cmax in mouse at 30 mg/kg/day, po for 14 days; format: ADME, organism-based; set-up: dose 30 mg/kg/day, route oral; conditions: in vivo
EXPERIMENTAL_ENDPOINT: Cmax (ng/mL)
Record the value in ng/mL, omitting the unit from your answer.

Q) Look up Cmax: "COc1ccc(OC)c(Sc2ccc3nnc(-c4cnn(C)c4)n3n2)c1"
A) 200

* * *

experiment: AUC (0 to 24 hrs) in mouse at 30 mg/kg/day, po for 14 days; assay type: ADME, organism-based; parameters: dose 30 mg/kg/day, time < 24 hr, route oral; details: plasma
EXPERIMENTAL_ENDPOINT: AUC at 24 h (ng·h/mL)
Lab book: enter the figure in ng·h/mL, no units written.

Q) Data request, read-out AUC at 24 h, for "COc1ccc(OC)c(Sc2ccc3nnc(-c4cnn(C)c4)n3n2)c1"
A) 350

* * *

test: Ratio of AUC (0 to tlast) in brain to plasma of rat at 10 mg/kg; format: ADME, organism-based; design: dose 10 mg/kg; settings: brain and plasma
EXPERIMENTAL_ENDPOINT: Kp

Q) What does the data say about its Kp? Entry: "COc1ccc(OC)c(Sc2ccc3nnc(-c4cnn(C)c4)n3n2)c1"
A) 0.14

src = ChEMBL document CHEMBL3352207
